# study target: Delta-type opioid receptor (Homo sapiens, UniProt P41143)
# Sequence (P41143 whole entry): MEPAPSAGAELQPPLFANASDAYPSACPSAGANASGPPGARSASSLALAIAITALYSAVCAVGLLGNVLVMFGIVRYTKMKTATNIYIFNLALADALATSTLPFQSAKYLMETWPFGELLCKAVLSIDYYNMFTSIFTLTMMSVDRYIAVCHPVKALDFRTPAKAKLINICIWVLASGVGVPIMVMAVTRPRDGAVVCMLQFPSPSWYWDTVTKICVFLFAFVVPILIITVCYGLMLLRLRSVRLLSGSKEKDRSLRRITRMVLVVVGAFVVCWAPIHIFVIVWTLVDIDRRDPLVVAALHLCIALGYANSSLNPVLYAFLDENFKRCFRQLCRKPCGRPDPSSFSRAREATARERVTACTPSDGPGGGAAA
# assay overview: Displacement of [3H]Cl-DPDPE from human recombinant delta opioid receptor expressed in CHO cells
# Format: cell-based
Recorded measurements of pKi, one per entry
// field semantics: pKi = negative decimal log of concentration (mol/L)

COc1ccc2c3c1O[C@H]1C(=O)CC[C@@]4(NCCCCc5ccc(Cl)cc5)[C@@H](C2)N(CC2CC2)CC[C@]314 = 7.25
O=C(C/C=C/c1ccc(Cl)cc1)N[C@@]12CCC(=O)[C@@H]3Oc4c(O)ccc5c4[C@@]31CCN(CC1CC1)[C@@H]2C5 = 8.49

Specify measured pKi for `COc1ccc2c3c1O[C@H]1C(=O)CC[C@@]4(NC/C=C/Cc5ccc(Cl)cc5)[C@@H](C2)N(CC2CC2)CC[C@]314` . 7.02

Specify measured pKi for `COc1ccc2c3c1O[C@H]1C(=O)CC[C@@]4(NC(=O)/C=C/Cc5ccc(Cl)cc5)[C@@H](C2)N(CC2CC2)CC[C@]314` . 6.62
